Data provenance: patent US9133099B2

- System: DLD-1 cells
- ASSAY PROCEDURE: Colon cancer cell growth, BrdU incorporation, DLD-1 cells
- Type: cell-based, human
- PARTICULARS: Homo sapiens; 10 mM, DLD-1 cells, 48 hours, BrdU
EXPERIMENTAL READOUT: inhibition at 10000 µM (%)

- COC(Cc1ccc(N)cc1)C(=O)O (racemic): 15.1
- CCOC(Cc1cccc(N)c1)C(=O)O (racemic): 2.7
- COC(Cc1cccc(N)c1)C(=O)O (racemic): 4.8
- CCOC(Cc1ccc(N)cc1)C(=O)O (racemic): 12.8
- Nc1cccc(CC(O)C(=O)O)c1 (racemic): 47

====

- TARGET ENTITY: PPARγ (Homo sapiens, UniProt P37231)
- Construct: transient transfections of epithelial cells with the renilla luciferase and PPRE plamids; endogenous in cells; host or cells: HT-29 human colon carcinoma cells
- Sequence (P37231 whole entry): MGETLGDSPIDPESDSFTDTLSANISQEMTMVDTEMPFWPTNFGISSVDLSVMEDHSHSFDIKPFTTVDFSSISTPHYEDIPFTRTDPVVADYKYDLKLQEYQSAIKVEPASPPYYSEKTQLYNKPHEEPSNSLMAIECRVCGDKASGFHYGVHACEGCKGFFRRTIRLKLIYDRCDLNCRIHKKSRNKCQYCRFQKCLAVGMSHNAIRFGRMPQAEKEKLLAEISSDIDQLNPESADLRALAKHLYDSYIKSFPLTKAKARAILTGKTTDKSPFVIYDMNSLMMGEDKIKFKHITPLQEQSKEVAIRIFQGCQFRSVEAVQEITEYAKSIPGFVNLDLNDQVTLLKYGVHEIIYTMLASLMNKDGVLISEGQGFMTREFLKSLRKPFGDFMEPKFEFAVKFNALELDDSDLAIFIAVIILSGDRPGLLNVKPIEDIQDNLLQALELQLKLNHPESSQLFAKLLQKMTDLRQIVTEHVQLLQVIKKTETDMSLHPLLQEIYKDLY
- ASSAY PROCEDURE: PPARγ transcriptional activity, renilla luciferase/PPRE reporter gene in transfected HT-29 cells
- Format: cell-based
- PARTICULARS: 1 mM, 24 hours
increase of the reporter gene activity (PPARγ activity) listing for selected compounds.
EXPERIMENTAL READOUT: increase of the reporter gene activity (PPARγ activity) (fold)

* COC(Cc1ccc(N)cc1)C(=O)O (racemic) | 4.8
* COC(Cc1cccc(N)c1)C(=O)O (racemic) | 2.64
* CCOC(Cc1ccc(N)cc1)C(=O)O (racemic) | 2.73
* CCOC(Cc1cccc(N)c1)C(=O)O (racemic) | 3.4

====

inhibition at 500 µM listing for selected molecules.
- System: DLD-1 cells
- ASSAY PROCEDURE: Colon cancer cell growth, BrdU incorporation, DLD-1 cells
- Assay type: cell-based, human
- PARTICULARS: Homo sapiens; 0.5 mM, DLD-1 cells, 48 hours, BrdU
EXPERIMENTAL READOUT: inhibition at 500 µM (%)

* Nc1cccc(CC(O)C(=O)O)c1 (racemic) | 4.3
* COC(Cc1ccc(N)cc1)C(=O)O (racemic) | 0
* CCOC(Cc1ccc(N)cc1)C(=O)O (racemic) | 1.6
* CCOC(Cc1cccc(N)c1)C(=O)O (racemic) | 2
* COC(Cc1cccc(N)c1)C(=O)O (racemic) | 0
